Assay: Hematology assays in cynomolgus monkeys (Example 46)
Type: in vivo
Settings: Day 17
Strand notation (5' to 3'): a small letter for the sugar, then the base; units joined by * are phosphorothioate-linked, units joined directly phosphodiester-linked; [ ] holds rarer units or linkages, { } end groups; capitals alone tell only the bases. e = 2'-O-(2-methoxyethyl) (MOE); [5mC] = 5-methylcytosine; d = 2'-deoxy (DNA)
reported_endpoint: platelet count

* ISIS 449710: 3-8-3, 4-8-4, 2-10-2, 3-10-3 or 4-10-4 MOE microwalk gapmer (Table 46) (antisense e[5mC]*eA*e[5mC]*dA*dG*dT*dT*dT*d[5mC]*dT*dG*dG*d[5mC]*eA*eG*eG) | 382 ×100/μL
* ISIS 449709: 3-8-3, 4-8-4, 2-10-2, 3-10-3 or 4-10-4 MOE microwalk gapmer (Table 46) (antisense eG*e[5mC]*eA*e[5mC]*dA*dG*dT*dT*dT*d[5mC]*dT*dG*dG*d[5mC]*eA*eG*eG*e[5mC]) | 449 ×100/μL
* ISIS 449707: 3-8-3, 4-8-4, 2-10-2, 3-10-3 or 4-10-4 MOE microwalk gapmer (Table 46) (antisense e[5mC]*eA*e[5mC]*eA*dG*dT*dT*dT*d[5mC]*dT*dG*dG*e[5mC]*eA*eG*eG) | 408 ×100/μL
* ISIS 449708: 3-8-3, 4-8-4, 2-10-2, 3-10-3 or 4-10-4 MOE microwalk gapmer (Table 46) (antisense eA*e[5mC]*eA*dG*dT*dT*dT*d[5mC]*dT*dG*dG*e[5mC]*eA*eG) | 444 ×100/μL
* ISIS 445522: 5-8-5 or 6-8-6 MOE microwalk gapmer (Table 44) (antisense eG*e[5mC]*eA*e[5mC]*eA*dG*dT*dT*dT*d[5mC]*dT*dG*dG*e[5mC]*eA*eG*eG*e[5mC]) | 521 ×100/μL
* ISIS 416850: MOE gapmer, nucleobases 1275 to 1318 of SEQ ID NO: 1 (Table 8) (antisense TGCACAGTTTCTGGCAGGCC; MOE gapmer, wing and gap sizes not given here) | 467 ×100/μL
* ISIS 449711: 3-8-3, 4-8-4, 2-10-2, 3-10-3 or 4-10-4 MOE microwalk gapmer (Table 46) (antisense eA*e[5mC]*dA*dG*dT*dT*dT*d[5mC]*dT*dG*dG*d[5mC]*eA*eG) | 325 ×100/μL
* ISIS 445531: 5-8-5 or 6-8-6 MOE microwalk gapmer (Table 44) (antisense eG*eG*e[5mC]*eA*eT*dT*dG*dG*dT*dG*d[5mC]*dA*d[5mC]*eA*eG*eT*eT*eT) | 380 ×100/μL
* ISIS 416858: MOE gapmer, nucleobases 1275 to 1318 of SEQ ID NO: 1 (Table 8) (antisense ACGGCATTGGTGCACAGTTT; MOE gapmer, wing and gap sizes not given here) | 358 ×100/μL

----------
Tested on: blood coagulation
Assay: PT and aPTT assay in cynomolgus monkeys (Example 46)
Format: in vivo
Conditions: Day 55; platelet poor plasma; relative to PBS group
Strand notation (5' to 3'): a small letter for the sugar, then the base; units joined by * are phosphorothioate-linked, units joined directly phosphodiester-linked; [ ] holds rarer units or linkages, { } end groups; capitals alone tell only the bases. e = 2'-O-(2-methoxyethyl) (MOE); [5mC] = 5-methylcytosine; d = 2'-deoxy (DNA)
reported_endpoint: aPTT ratio relative to PBS group

* ISIS 449710: 3-8-3, 4-8-4, 2-10-2, 3-10-3 or 4-10-4 MOE microwalk gapmer (Table 46) (antisense e[5mC]*eA*e[5mC]*dA*dG*dT*dT*dT*d[5mC]*dT*dG*dG*d[5mC]*eA*eG*eG) | 1.07
* ISIS 449707: 3-8-3, 4-8-4, 2-10-2, 3-10-3 or 4-10-4 MOE microwalk gapmer (Table 46) (antisense e[5mC]*eA*e[5mC]*eA*dG*dT*dT*dT*d[5mC]*dT*dG*dG*e[5mC]*eA*eG*eG) | 1.04
* ISIS 416850: MOE gapmer, nucleobases 1275 to 1318 of SEQ ID NO: 1 (Table 8) (antisense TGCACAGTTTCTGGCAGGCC; MOE gapmer, wing and gap sizes not given here) | 1.45
* ISIS 449708: 3-8-3, 4-8-4, 2-10-2, 3-10-3 or 4-10-4 MOE microwalk gapmer (Table 46) (antisense eA*e[5mC]*eA*dG*dT*dT*dT*d[5mC]*dT*dG*dG*e[5mC]*eA*eG) | 1.11

----------
The following substances are listed with their measured Urine protein/creatinine ratio values.
Test: Kidney function, BUN, urine protein to creatinine ratio in cynomolgus monkeys (Example 46)
Format: in vivo
Conditions: urine, day 49
Strand notation (5' to 3'): a small letter for the sugar, then the base; units joined by * are phosphorothioate-linked, units joined directly phosphodiester-linked; [ ] holds rarer units or linkages, { } end groups; capitals alone tell only the bases. e = 2'-O-(2-methoxyethyl) (MOE); [5mC] = 5-methylcytosine; d = 2'-deoxy (DNA)
reported_endpoint: Urine protein/creatinine ratio

- ISIS 449709: 3-8-3, 4-8-4, 2-10-2, 3-10-3 or 4-10-4 MOE microwalk gapmer (Table 46) (antisense eG*e[5mC]*eA*e[5mC]*dA*dG*dT*dT*dT*d[5mC]*dT*dG*dG*d[5mC]*eA*eG*eG*e[5mC]): 0.05
- ISIS 416850: MOE gapmer, nucleobases 1275 to 1318 of SEQ ID NO: 1 (Table 8) (antisense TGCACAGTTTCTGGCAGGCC; MOE gapmer, wing and gap sizes not given here): 0.08
- ISIS 445522: 5-8-5 or 6-8-6 MOE microwalk gapmer (Table 44) (antisense eG*e[5mC]*eA*e[5mC]*eA*dG*dT*dT*dT*d[5mC]*dT*dG*dG*e[5mC]*eA*eG*eG*e[5mC]): 0.01
- ISIS 416858: MOE gapmer, nucleobases 1275 to 1318 of SEQ ID NO: 1 (Table 8) (antisense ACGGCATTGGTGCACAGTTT; MOE gapmer, wing and gap sizes not given here): 0.05

----------
Test: Hematology assays in cynomolgus monkeys (Example 45)
Assay type: in vivo
Details: day 15; escalating dose regimen
Measured MCV by item
reported_endpoint: MCV (fL)

• ISIS 416858: MOE gapmer, nucleobases 1275 to 1318 of SEQ ID NO: 1 (Table 8) (antisense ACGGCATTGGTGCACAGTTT; MOE gapmer, wing and gap sizes not given here) = 74
• ISIS 417002: MOE gapmer, nucleobases 1275 to 1318 of SEQ ID NO: 1 (Table 8) (antisense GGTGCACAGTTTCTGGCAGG; MOE gapmer, wing and gap sizes not given here) = 76
• ISIS 416838: MOE gapmer, nucleobases 1018 to 1042 of SEQ ID NO: 1 (Table 6) (antisense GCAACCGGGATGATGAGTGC; MOE gapmer, wing and gap sizes not given here) = 75
• ISIS 416850: MOE gapmer, nucleobases 1275 to 1318 of SEQ ID NO: 1 (Table 8) (antisense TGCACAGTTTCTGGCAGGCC; MOE gapmer, wing and gap sizes not given here) = 76
• ISIS 416864: MOE gapmer, nucleobases 1275 to 1318 of SEQ ID NO: 1 (Table 8) (antisense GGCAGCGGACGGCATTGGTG; MOE gapmer, wing and gap sizes not given here) = 74

----------
System: IL-1β, IL-6, IFN-γ, TNF-α, IL-8, MIP-1α, MCP-1, MIP-1β, RANTES
Experiment: Cytokine and chemokine assays in cynomolgus monkeys (Example 46)
Type: in vivo
Details: day 55
Strand notation (5' to 3'): a small letter for the sugar, then the base; units joined by * are phosphorothioate-linked, units joined directly phosphodiester-linked; [ ] holds rarer units or linkages, { } end groups; capitals alone tell only the bases. e = 2'-O-(2-methoxyethyl) (MOE); [5mC] = 5-methylcytosine; d = 2'-deoxy (DNA)
reported_endpoint: MIP-1ß level (pg/mL)

• ISIS 449709: 3-8-3, 4-8-4, 2-10-2, 3-10-3 or 4-10-4 MOE microwalk gapmer (Table 46) (antisense eG*e[5mC]*eA*e[5mC]*dA*dG*dT*dT*dT*d[5mC]*dT*dG*dG*d[5mC]*eA*eG*eG*e[5mC]) = 47
• ISIS 449711: 3-8-3, 4-8-4, 2-10-2, 3-10-3 or 4-10-4 MOE microwalk gapmer (Table 46) (antisense eA*e[5mC]*dA*dG*dT*dT*dT*d[5mC]*dT*dG*dG*d[5mC]*eA*eG) = 91
• ISIS 449707: 3-8-3, 4-8-4, 2-10-2, 3-10-3 or 4-10-4 MOE microwalk gapmer (Table 46) (antisense e[5mC]*eA*e[5mC]*eA*dG*dT*dT*dT*d[5mC]*dT*dG*dG*e[5mC]*eA*eG*eG) = 49
• ISIS 445531: 5-8-5 or 6-8-6 MOE microwalk gapmer (Table 44) (antisense eG*eG*e[5mC]*eA*eT*dT*dG*dG*dT*dG*d[5mC]*dA*d[5mC]*eA*eG*eT*eT*eT) = 84
• ISIS 416858: MOE gapmer, nucleobases 1275 to 1318 of SEQ ID NO: 1 (Table 8) (antisense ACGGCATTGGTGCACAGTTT; MOE gapmer, wing and gap sizes not given here) = 47
